Source of measurements: ChEMBL document CHEMBL4130533

system: Vero; assay: Antiproliferative activity against African green monkey Vero cells by MTT assay; format: cell-based; conditions: Chlorocebus sabaeus
Experimental endpoint: log10(IC50) (log10 of the value in µM)
The base-10 logarithm of IC50, taken with IC50 in µM, is what appears here.

Past entries and their recorded results:
# Molecular string, log10(IC50)
data = [
    ("CO[C@H]1[C@@H](O)[C@H](O[C@H]2CC[C@@]3(C)[C@H](CC[C@@H]4[C@@H]3CC[C@]3(C)[C@@H](C5=CC(=O)OC5)[C@@H](OC(C)=O)C[C@]43O)C2)O[C@@H](C)[C@@H]1O[C@@H]1O[C@H](CO)[C@@H](O)[C@H](O)[C@H]1O", -0.15),
    ("CO[C@H]1[C@@H](O)[C@H](O[C@H]2CC[C@@]3(C)[C@H](CC[C@@H]4[C@@H]3CC[C@]3(C)C(C5=CC(=O)OC5)=CC[C@]43O)C2)O[C@@H](C)[C@@H]1O[C@@H]1O[C@H](CO)[C@@H](O)[C@H](O)[C@H]1O", 0.40),
    ("CO[C@@H]1[C@@H](O)[C@H](O[C@H]2CC[C@@]3(C)[C@H](CC[C@@H]4[C@@H]3CC[C@]3(C)[C@@H](C5=CC(=O)OC5)[C@@H](OC(C)=O)C[C@]43O)C2)O[C@@H](C)[C@@H]1O[C@@H]1O[C@H](CO)[C@@H](O)[C@H](O)[C@H]1O", -0.22),
    ("CO[C@@H]1[C@@H](O)[C@H](O[C@H]2CC[C@@]3(C)[C@H](CC[C@@H]4[C@@H]3CC[C@]3(C)C(C5=CC(=O)OC5)=CC[C@]43O)C2)O[C@@H](C)[C@@H]1O[C@@H]1O[C@H](CO)[C@@H](O)[C@H](O)[C@H]1O", 0.79),
    ("CO[C@@H]1[C@@H](O)[C@H](O[C@H]2CC[C@@]3(C)[C@H](CC[C@@H]4[C@@H]3CC[C@]3(C)[C@@H](C5=CC(=O)OC5)[C@@H](OC(C)=O)C[C@]43O)C2)O[C@@H](C)[C@@H]1O[C@@H]1O[C@H](CO[C@@H]2O[C@H](CO)[C@@H](O)[C@H](O)[C@H]2O)[C@@H](O)[C@H](O)[C@H]1O", 0.84),
]

Data request, read-out log10(IC50), for CO[C@H]1[C@@H](O[C@@H]2O[C@H](CO)[C@@H](O)[C@H](O)[C@H]2O)[C@H](C)O[C@@H](O[C@H]2CC[C@@]3(C)[C@H](CC[C@@H]4[C@@H]3CC[C@]3(C)[C@@H](C5=CC(=O)OC5)[C@@H](OC(C)=O)C[C@]43O)C2)[C@@H]1OC(C)=O
0.34

Param item = CO[C@@H]1[C@@H](O)[C@H](C)O[C@@H](O[C@H]2CC[C@@]3(C)[C@H](CC[C@@H]4[C@@H]3CC[C@]3(C)[C@@H](C5=CC(=O)OC5)[C@@H](OC(C)=O)C[C@]43O)C2)[C@@H]1OC(C)=O ; retrieve measured log10(IC50).
-0.70

###

system: HeLa S3; test: Antiproliferative activity against human HeLaS3 cells by MTT assay; type: functional, cell-based
Experimental endpoint: IC50
Kindly report the value followed by its unit.

# Molecular string, IC50
rows = [
    ("CO[C@@H]1[C@@H](O[C@@H]2O[C@H](CO)[C@@H](O)[C@H](O)[C@H]2O)[C@H](C)O[C@@H](O[C@H]2CC[C@@]3(C)[C@H](CC[C@@H]4[C@@H]3CC[C@]3(C)[C@@H](C5=CC(=O)OC5)[C@@H](OC(C)=O)C[C@]43O)C2)[C@@H]1OC(C)=O", "1400 nM"),
]

Here's the next entry for you.
Endpoint output: IC50 of CO[C@@H]1[C@@H](O)[C@H](O[C@H]2CC[C@@]3(C)[C@H](CC[C@@H]4[C@@H]3CC[C@]3(C)C(C5=CC(=O)OC5)=CC[C@]43O)C2)O[C@@H](C)[C@@H]1O[C@@H]1O[C@H](CO)[C@@H](O)[C@H](O)[C@H]1O . Value?
700 nM

###

tested on: Vero; test: Antiproliferative activity against African green monkey Vero cells by MTT assay; assay type: cell-based; conditions: Chlorocebus sabaeus
Experimental endpoint: IC50 (nM)
Reply numerically in nM, unit not repeated.

Could you share what IC50 was measured for CO[C@H]1[C@@H](O)[C@H](C)O[C@@H](O[C@H]2CC[C@@]3(C)[C@H](CC[C@@H]4[C@@H]3CC[C@]3(C)[C@@H](C5=CC(=O)OC5)[C@@H](OC(C)=O)C[C@]43O)C2)[C@@H]1OC(C)=O , tested on Vero?
300

###

Here the recorded IC50 is given for each entry.
tested on: HT-29; assay: Antiproliferative activity against human HT-29 cells by MTT assay; assay type: functional, cell-based
API: value field is a number in nM; no unit string.

Some solved cases for reference:
# Compound, Assayed system, Experimental endpoint, Endpoint result
measured = [
    ("COc1cc([C@@H]2c3cc4c(cc3[C@@H](O[C@@H]3O[C@@H]5CO[C@@H](C)O[C@H]5[C@H](O)[C@H]3O)[C@H]3COC(=O)[C@H]23)OCO4)cc(OC)c1O [ETOPOSIDE]", "HT-29", "IC50", 7600),
    ("CO[C@@H]1[C@@H](O)[C@H](O[C@H]2CC[C@@]3(C)[C@H](CC[C@@H]4[C@@H]3CC[C@]3(C)[C@@H](C5=CC(=O)OC5)[C@@H](OC(C)=O)C[C@]43O)C2)O[C@@H](C)[C@@H]1O[C@@H]1O[C@H](CO)[C@@H](O)[C@H](O)[C@H]1O", "HT-29", "IC50", 200),
]

Here is the next item to consider.
I have this compound here, CO[C@@H]1[C@@H](O)[C@H](C)O[C@@H](O[C@H]2CC[C@@]3(C)[C@H](CC[C@@H]4[C@@H]3CC[C@]3(C)[C@@H](C5=CC(=O)OC5)[C@@H](OC(C)=O)C[C@]43O)C2)[C@@H]1OC(C)=O , and I need its recorded IC50.
100

###

// reported pIC50 for each item listed
system: HT-29; assay: Antiproliferative activity against human HT-29 cells by MTT assay; assay type: functional, cell-based
The meaning of pIC50 here: minus log10 of the concentration in molar units.

Before answering, review these 3 worked examples.
# Molecular string, pIC50
measured = [
    ("CO[C@H]1[C@@H](O[C@@H]2O[C@H](CO)[C@@H](O)[C@H](O)[C@H]2O)[C@H](C)O[C@@H](O[C@H]2CC[C@@]3(C)[C@H](CC[C@@H]4[C@@H]3CC[C@]3(C)[C@@H](C5=CC(=O)OC5)[C@@H](OC(C)=O)C[C@]43O)C2)[C@@H]1OC(C)=O", 6.22),
    ("COc1cccc2c1C(=O)c1c(O)c3c(c(O)c1C2=O)C[C@@](O)(C(=O)CO)C[C@@H]3O[C@H]1C[C@H](N)[C@H](O)[C@H](C)O1", 6.40),
    ("CO[C@H]1[C@@H](O)[C@H](O[C@H]2CC[C@@]3(C)[C@H](CC[C@@H]4[C@@H]3CC[C@]3(C)[C@@H](C5=CC(=O)OC5)[C@@H](OC(C)=O)C[C@]43O)C2)O[C@@H](C)[C@@H]1O[C@@H]1O[C@H](CO)[C@@H](O)[C@H](O)[C@H]1O", 6.70),
]

What pIC50 value was documented for this compound, CO[C@H]1[C@@H](O)[C@H](C)O[C@@H](O[C@H]2CC[C@@]3(C)[C@H](CC[C@@H]4[C@@H]3CC[C@]3(C)[C@@H](C5=CC(=O)OC5)[C@@H](OC(C)=O)C[C@]43O)C2)[C@@H]1OC(C)=O ?
7.00

###

Examples of compounds with documented IC50 follow.
system: HeLa S3; assay: Antiproliferative activity against human HeLaS3 cells by MTT assay; format: functional, cell-based
// return numeric value only (unit: nM, not printed)

Some compounds with recorded IC50:
# Molecular string, IC50 [nM]
data = [
    ("CO[C@H]1[C@@H](O)[C@H](C)O[C@@H](O[C@H]2CC[C@@]3(C)[C@H](CC[C@@H]4[C@@H]3CC[C@]3(C)[C@@H](C5=CC(=O)OC5)[C@@H](OC(C)=O)C[C@]43O)C2)[C@@H]1OC(C)=O", 100),
    ("CO[C@H]1[C@@H](O[C@@H]2O[C@H](CO)[C@@H](O)[C@H](O)[C@H]2O)[C@H](C)O[C@@H](O[C@H]2CC[C@@]3(C)[C@H](CC[C@@H]4[C@@H]3CC[C@]3(C)[C@@H](C5=CC(=O)OC5)[C@@H](OC(C)=O)C[C@]43O)C2)[C@@H]1OC(C)=O", 400),
    ("CO[C@@H]1[C@@H](O[C@@H]2O[C@H](CO[C@@H]3O[C@H](CO)[C@@H](O)[C@H](O)[C@H]3O)[C@@H](O)[C@H](O)[C@H]2O)[C@H](C)O[C@@H](O[C@H]2CC[C@@]3(C)[C@H](CC[C@@H]4[C@@H]3CC[C@]3(C)[C@@H](C5=CC(=O)OC5)[C@@H](OC(C)=O)C[C@]43O)C2)[C@@H]1OC(C)=O", 1600),
]

Endpoint output: IC50 of CO[C@H]1[C@@H](O)[C@H](O[C@H]2CC[C@@]3(C)[C@H](CC[C@@H]4[C@@H]3CC[C@]3(C)C(C5=CC(=O)OC5)=CC[C@]43O)C2)O[C@@H](C)[C@@H]1O[C@@H]1O[C@H](CO)[C@@H](O)[C@H](O)[C@H]1O . Value?
700
